# reported IC50; entries follow
# Tested on: PDL
# test-description: MTT assay, normal fibroblast cell line (PDL)
# Type: cell-based, human
# assay-conditions: Homo sapiens, Fibroblast; PDL normal fibroblasts, 72 h

smiles_repr=CCOC(=O)c1c(NC(=O)CN2CCCCC2)sc2c1CCN(C(=O)OCC)C2 observation_type=IC50 result="> 100 µM"

# next compound below
input: State the recorded IC50 for this entry: CCOC(=O)c1c(NC(=O)CN2CCSCC2)sc2c1CCN(C(=O)OCC)C2
output: > 100 µM

----------
# System: T47D
# test-description: MTT assay, T47D breast cancer cells
# Format: cell-based
# assay-conditions: Homo sapiens, 10 µM, 72 h, read-out: % cell growth inhibition
observation-type: inhibition at 10 µM

Example results:
smiles_repr=CCOC(=O)c1c(NC(=O)CN2CCN(C(=O)c3ccco3)CC2)sc2c1CCN(C(=O)OCC)C2 result=1.19%
smiles_repr=CCOC(=O)c1c(NC(=O)CN2CCCCC2)sc2c1CCN(C(=O)OCC)C2 result=38.6%
smiles_repr=CCOC(=O)c1c(NC(=O)CN2CCN(CC)CC2)sc2c1CCN(C(=O)OCC)C2 result=3.12%
smiles_repr=CCOC(=O)c1c(NC(=O)CN2CCC(C)CC2)sc2c1CCN(C(=O)OCC)C2 result=24.4%
smiles_repr=CCOC(=O)c1c(NC(=O)CN2CCN(c3ncccn3)CC2)sc2c1CCN(C(=O)OCC)C2 result=10.1%
smiles_repr=CCOC(=O)c1c(NC(=O)CN2CCN(c3ccccc3OC)CC2)sc2c1CCN(C(=O)OCC)C2 result=14.2%
smiles_repr=CCOC(=O)c1c(NC(=O)CN2CCOCC2)sc2c1CCN(C(=O)OCC)C2 result=17.8%
smiles_repr=CCOC(=O)c1c(NC(=O)CN2CCNCC2)sc2c1CCN(C(=O)OCC)C2 result=28.1%
smiles_repr=CCOC(=O)c1c(NC(=O)CN2CCN(C(=O)OC(C)(C)C)CC2)sc2c1CCN(C(=O)OCC)C2 result=16.2%
smiles_repr=CCOC(=O)c1c(NC(=O)CN2CCN(C)CC2)sc2c1CCN(C(=O)OCC)C2 result=2.54%

input: State the recorded inhibition at 10 µM for this entry: CCOC(=O)c1c(NC(=O)CN2CCSCC2)sc2c1CCN(C(=O)OCC)C2
output: 35.3%

----------
# reported inhibition at 10 µM; entries follow
# Tested on: MCF7
# test-description: MTT assay, MCF7 breast cancer cells
# Assay type: cell-based
# assay-conditions: Homo sapiens; MCF7, 10 µM, 72 h; read-out: % cell growth inhibition
Field format: number, assumed %, no unit text.

Example results:
smiles_repr=CCOC(=O)c1c(NC(=O)CN2CCCCC2)sc2c1CCN(C(=O)OCC)C2 unit_string=% readout_number=39.5
smiles_repr=CCOC(=O)c1c(NC(=O)CN2CCC(C)CC2)sc2c1CCN(C(=O)OCC)C2 unit_string=% readout_number=29.7
smiles_repr=CCOC(=O)c1c(NC(=O)CN2CCN(C)CC2)sc2c1CCN(C(=O)OCC)C2 unit_string=% readout_number=3.7
smiles_repr=CCOC(=O)c1c(NC(=O)CN2CCN(C(=O)OC(C)(C)C)CC2)sc2c1CCN(C(=O)OCC)C2 unit_string=% readout_number=10

input: Entry CCOC(=O)c1c(NC(=O)CN2CCN(c3ccccc3OC)CC2)sc2c1CCN(C(=O)OCC)C2 , system MCF7: what inhibition at 10 µM was measured?
output: 6.36

input: Entry CCOC(=O)c1c(NC(=O)CN2CCNCC2)sc2c1CCN(C(=O)OCC)C2 , system MCF7: what inhibition at 10 µM was measured?
output: 22.1

input: Entry CCOC(=O)c1c(NC(=O)CN2CCSCC2)sc2c1CCN(C(=O)OCC)C2 , system MCF7: what inhibition at 10 µM was measured?
output: 39.1

input: Entry CCOC(=O)c1c(NC(=O)CN2CCN(C(=O)c3ccco3)CC2)sc2c1CCN(C(=O)OCC)C2 , system MCF7: what inhibition at 10 µM was measured?
output: 16.2
